Settings: 298.15 K; 101.33 kPa; Liquid; Vibrating tube method
Listed here are compounds together with their documented mass density.

>  <Compound>
CCn1cc[n+](C)c1.O=S(=O)([N-]S(=O)(=O)C(F)(F)F)C(F)(F)F

>  <Unit Abbreviation>
kg/m3

>  <mass density>
1518.91

$$$$
>  <Compound>
C=CC(C)(O)CCC=C(C)C (stereo not given)

>  <Unit Abbreviation>
kg/m3

>  <mass density>
856.83

$$$$
>  <Compound>
CCCCCCCCCCn1cc[n+](C)c1.O=S(=O)([N-]S(=O)(=O)C(F)(F)F)C(F)(F)F

>  <Unit Abbreviation>
kg/m3

>  <mass density>
1278.4

$$$$
>  <Compound>
CCCCCC[n+]1ccn(C)c1.O=S(=O)([N-]S(=O)(=O)C(F)(F)F)C(F)(F)F

>  <Unit Abbreviation>
kg/m3

>  <mass density>
1372.09

$$$$
>  <Compound>
C=C(C)[C@H]1CC=C(C)CC1 [(R)-1-methyl-4-(1-methylethenyl)cyclohexene]

>  <Unit Abbreviation>
kg/m3

>  <mass density>
838.68

$$$$

Origin of the recorded values: the NIST ThermoML archive (doi:10.1021/je1011339)
